target: HLA-DR2 (DRA/DRB1*1501) (Homo sapiens, UniProt P01903+P01911); construct: isolate soluble HLA-DR2 molecules which had been expressed in Drosophila S2 cells; made in house; host or cells: Drosophila S2 cells; assay: Competitive binding assay for HLA-DR2: inhibition of biotinylated MBP 85-99 binding; settings: recombinant HLA-DR2, FIG. 1A and Table 1
measured_quantity: inhibition of binding of biotinylated MBP 85-99 to HLA-DR2 (in words)

sequence_chain	result
EAPKVEAYKAAAAPA (The peptide was designed and synthesized.) [J13]	most effective
APEAKKFEAFKAAAAPA (The peptide was designed and synthesized.) [J15]	most effective
APEKAKFEAFKAAAAPA (The peptide was designed and synthesized.) [J8]	most effective
